Recorded total protein half-life in vivo for the following sequences
# method-summary: total protein half-life in vivo (active degradation + dilution); higher = more stable protein
# test-context: wild type E. coli NCM3722; growth: N-lim chemostat; doubling time 12 h

residue-codes	total protein half-life in vivo, h
MLVWLAEHLVKYYSGFNVFSYLTFRAIVSLLTALFISLWMGPRMIAHLQKLSFGQVVRNDGPESHFSKRGTPTMGGIMILTAIVISVLLWAYPSNPYVWCVLVVLVGYGVIGFVDDYRKVVRKDTKGLIARWKYFWMSVIALGVAFALYLAGKDTPATQLVVPFFKDVMPQLGLFYILLAYFVIVGTGNAVNLTDGLDGLAIMPTVFVAGGFALVAWATGNMNFASYLHIPYLRHAGELVIVCTAIVGAGLGFLWFNTYPAQVFMGDVGSLALGGALGIIAVLLRQEFLLVIMGGVFVVETLSVILQVGSFKLRGQRIFRMAPIHHHYELKGWPEPRVIVRFWIISLMLVLIGLATLKVR [P0A6W3]	13.1
MSLPHCPKCNSEYTYEDNGMYICPECAYEWNDAEPAQESDELIVKDANGNLLADGDSVTIIKDLKVKGSSSMLKIGTKVKNIRLVEGDHNIDCKIDGFGPMKLKSEFVKKN [P0AFJ1]	10.2
MSESLSWMQTGDTLALSGELDQDVLLPLWEMREEAVKGITCIDLSRVSRVDTGGLALLLHLIDLAKKQGNNVTLQGVNDKVYTLAKLYNLPADVLPR	10.2
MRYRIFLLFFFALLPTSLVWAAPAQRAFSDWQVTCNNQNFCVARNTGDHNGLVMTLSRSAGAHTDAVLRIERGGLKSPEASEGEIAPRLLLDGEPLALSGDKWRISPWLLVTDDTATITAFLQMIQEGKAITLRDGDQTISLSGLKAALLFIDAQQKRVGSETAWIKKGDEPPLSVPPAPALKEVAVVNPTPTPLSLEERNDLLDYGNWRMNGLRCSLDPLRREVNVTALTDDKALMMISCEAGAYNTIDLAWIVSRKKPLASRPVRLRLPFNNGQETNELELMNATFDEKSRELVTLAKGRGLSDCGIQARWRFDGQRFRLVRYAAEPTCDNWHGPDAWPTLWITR	12.9
MAEVTQLKRYDARPINWGKWFLIGIGMLVSAFILLVPMIYIFVQAFSKGLMPVLQNLADPDMLHAIWLTVMIALIAVPVNLVFGILLAWLVTRFNFPGRQLLLTLLDIPFAVSPVVAGLVYLLFYGSNGPLGGWLDEHNLQIMFSWPGMVLVTIFVTCPFVVRELVPVMLSQGSQEDEAAILLGASGWQMFRRVTLPNIRWALLYGVVLTNARAIGEFGAVSVVSGSIRGETLSLPLQIELLEQDYNTVGSFTAAALLTLMAIITLFLKSMLQWRLENQEKRAQQEEHHEH [P0AEB0]	4.73
MDLIYFLIDFILHIDVHLAELVAEYGVWVYAILFLILFCETGLVVTPFLPGDSLLFVAGALASLETNDLNVHMMVVLMLIAAIVGDAVNYTIGRLFGEKLFSNPNSKIFRRSYLDKTHQFYEKHGGKTIILARFVPIVRTFAPFVAGMGHMSYRHFAAYNVIGALLWVLLFTYAGYFFGTIPMVQDNLKLLIVGIIVVSILPGVIEIIRHKRAAARAAK [P0ABP6]	6.2

###

# method-summary: total protein half-life in vivo (active degradation + dilution); higher = more stable protein
# test-context: wild type E. coli NCM3722; growth: C-lim chemostat; doubling time 6 h

residue-codes	result-units	total protein half-life in vivo
MIEWQDLHHSELSVSQLYALLQLRCAVFVVEQNCPYQDIDGDDLTGDNRHILGWKNDELVAYARILKSDDDLEPVVIGRVIVSEALRGEKVGQQLMSKTLETCTHHWPDKPVYLGAQAHLQNFYQSFGFIPVTEVYEEDGIPHIGMAREVIQA [P0AEH3]	h	4.3
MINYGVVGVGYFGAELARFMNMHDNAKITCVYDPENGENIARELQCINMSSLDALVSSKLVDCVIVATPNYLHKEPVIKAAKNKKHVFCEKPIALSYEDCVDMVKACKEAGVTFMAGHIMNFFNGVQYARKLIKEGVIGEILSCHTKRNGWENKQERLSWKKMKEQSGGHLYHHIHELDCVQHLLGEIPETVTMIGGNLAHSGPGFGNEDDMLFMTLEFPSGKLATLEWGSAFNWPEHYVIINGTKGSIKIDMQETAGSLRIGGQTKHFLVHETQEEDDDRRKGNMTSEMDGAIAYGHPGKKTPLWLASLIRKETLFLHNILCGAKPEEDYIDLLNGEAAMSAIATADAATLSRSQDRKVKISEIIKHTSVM	h	6.07

###

// total protein half-life in vivo lookup, one value per entry
# method-summary: total protein half-life in vivo (active degradation + dilution); higher = more stable protein
# test-context: wild type E. coli NCM3722; growth: P-lim chemostat; doubling time 6 h
measured-metric: total protein half-life in vivo (h)

residue-codes	assay-value
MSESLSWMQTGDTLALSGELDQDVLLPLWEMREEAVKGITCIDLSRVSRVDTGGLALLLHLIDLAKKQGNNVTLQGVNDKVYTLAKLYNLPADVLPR	5.33
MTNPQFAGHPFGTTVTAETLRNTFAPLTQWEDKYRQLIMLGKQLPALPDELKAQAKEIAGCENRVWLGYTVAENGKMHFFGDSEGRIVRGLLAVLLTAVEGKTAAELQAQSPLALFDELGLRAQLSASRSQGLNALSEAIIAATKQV [P0AGF2]	5.64
MSHVELQPGFDFQQAGKEVLAIERECLAELDQYINQNFTLACEKMFWCKGKVVVMGMGKSGHIGRKMAATFASTGTPSFFVHPGEAAHGDLGMVTPQDVVIAISNSGESSEITALIPVLKRLHVPLICITGRPESSMARAADVHLCVKVAKEACPLGLAPTSSTTATLVMGDALAVALLKARGFTAEDFALSHPGGALGRKLLLRVNDIMHTGDEIPHVKKTASLRDALLEVTRKNLGMTVICDDNMMIEGIFTDGDLRRVFDMGVDVRQLSIADVMTPGGIRVRPGILAVEALNLMQSRHITSVMVADGDHLLGVLHMHDLLRAGVV	5.83
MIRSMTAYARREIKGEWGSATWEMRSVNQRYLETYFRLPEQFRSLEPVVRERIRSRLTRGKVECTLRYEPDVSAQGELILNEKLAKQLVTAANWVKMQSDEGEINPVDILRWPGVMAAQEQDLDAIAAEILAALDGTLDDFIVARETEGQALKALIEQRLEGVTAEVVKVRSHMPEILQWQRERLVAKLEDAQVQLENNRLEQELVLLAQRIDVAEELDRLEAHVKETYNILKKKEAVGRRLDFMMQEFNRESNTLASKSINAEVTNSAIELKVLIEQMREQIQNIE	5.83
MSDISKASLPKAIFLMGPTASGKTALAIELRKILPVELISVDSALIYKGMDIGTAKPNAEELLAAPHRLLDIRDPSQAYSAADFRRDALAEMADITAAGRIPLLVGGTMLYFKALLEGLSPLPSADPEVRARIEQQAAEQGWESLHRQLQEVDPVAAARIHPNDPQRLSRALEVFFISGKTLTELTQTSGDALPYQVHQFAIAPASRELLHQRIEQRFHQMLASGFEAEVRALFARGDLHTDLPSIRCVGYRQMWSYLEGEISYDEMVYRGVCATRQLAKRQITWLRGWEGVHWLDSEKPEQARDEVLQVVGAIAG	5.67
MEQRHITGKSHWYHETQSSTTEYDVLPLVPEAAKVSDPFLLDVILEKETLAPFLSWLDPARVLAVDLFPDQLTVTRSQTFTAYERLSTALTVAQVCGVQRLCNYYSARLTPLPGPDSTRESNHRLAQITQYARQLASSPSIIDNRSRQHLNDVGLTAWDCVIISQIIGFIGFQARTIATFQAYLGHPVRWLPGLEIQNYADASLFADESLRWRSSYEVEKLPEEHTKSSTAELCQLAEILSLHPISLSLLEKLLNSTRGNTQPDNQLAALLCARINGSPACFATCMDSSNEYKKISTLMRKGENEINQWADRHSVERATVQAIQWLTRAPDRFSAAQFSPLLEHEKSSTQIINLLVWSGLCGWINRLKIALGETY	1.32

###

# method-summary: total protein half-life in vivo (active degradation + dilution); higher = more stable protein
# test-context: E. coli NCM3722 delta-lon; growth: N-lim chemostat; doubling time 6 h

residue-codes	total protein half-life in vivo [h]
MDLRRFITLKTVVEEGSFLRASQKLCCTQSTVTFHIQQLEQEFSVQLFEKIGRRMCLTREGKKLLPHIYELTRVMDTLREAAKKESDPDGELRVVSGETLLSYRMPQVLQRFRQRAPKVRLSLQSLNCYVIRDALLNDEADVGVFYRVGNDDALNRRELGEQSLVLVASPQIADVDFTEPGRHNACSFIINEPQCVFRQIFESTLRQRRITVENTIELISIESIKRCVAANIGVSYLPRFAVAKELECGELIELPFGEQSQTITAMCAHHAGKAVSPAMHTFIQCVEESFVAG	4.83
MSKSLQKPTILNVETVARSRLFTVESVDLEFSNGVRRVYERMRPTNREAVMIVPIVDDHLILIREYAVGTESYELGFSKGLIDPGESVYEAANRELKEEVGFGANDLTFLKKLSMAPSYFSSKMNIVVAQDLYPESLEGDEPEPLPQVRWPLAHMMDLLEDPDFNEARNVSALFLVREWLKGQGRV	4.58
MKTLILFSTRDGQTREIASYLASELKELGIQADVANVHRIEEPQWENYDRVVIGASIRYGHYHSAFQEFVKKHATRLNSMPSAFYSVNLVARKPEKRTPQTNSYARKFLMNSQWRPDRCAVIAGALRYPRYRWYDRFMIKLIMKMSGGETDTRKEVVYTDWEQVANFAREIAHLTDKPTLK [P0ACB4]	6.2
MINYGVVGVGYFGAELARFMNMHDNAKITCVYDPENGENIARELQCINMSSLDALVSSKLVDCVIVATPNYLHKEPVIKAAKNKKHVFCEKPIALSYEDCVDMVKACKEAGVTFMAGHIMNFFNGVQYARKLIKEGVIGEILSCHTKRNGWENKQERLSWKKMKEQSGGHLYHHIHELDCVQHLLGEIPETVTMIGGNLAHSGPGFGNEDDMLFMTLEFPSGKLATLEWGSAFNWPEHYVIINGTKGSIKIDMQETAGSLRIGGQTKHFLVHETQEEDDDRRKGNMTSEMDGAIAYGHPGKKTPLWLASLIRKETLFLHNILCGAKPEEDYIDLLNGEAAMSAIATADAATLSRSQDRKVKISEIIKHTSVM	4.79
MKKRKTVKKRYVIALVIVIAGLITLWRILNAPVPTYQTLIVRPGDLQQSVLATGKLDALRKVDVGAQVSGQLKTLSVAIGDKVKKDQLLGVIDPEQAENQIKEVEATLMELRAQRQQAEAELKLARVTYSRQQRLAQTKAVSQQDLDTAATEMAVKQAQIGTIDAQIKRNQASLDTAKTNLDYTRIVAPMAGEVTQITTLQGQTVIAAQQAPNILTLADMSAMLVKAQVSEADVIHLKPGQKAWFTVLGDPLTRYEGQIKDVLPTPEKVNDAIFYYARFEVPNPNGLLRLDMTAQVHIQLTDVKNVLTIPLSALGDPVGDNRYKVKLLRNGETREREVTIGARNDTDVEIVKGLEAGDEVVIGEAKPGAAQ	6.45
MKITLSKRIGLLAILLPCALALSTTVHAETNKLVIESGDSAQSRQHAAMEKEQWNDTRNLRQKVNKRTEKEWDKADAAFDNRDKCEQSANINAYWEPNTLRCLDRRTGRVITP	5.55
